Reported growth inhibition by item:
Assay: NCI Yeast Anticancer Drug Screen. Data for the mec2-1 strain (AID 157)
Conditions: S. cerevisiae mec2-1 strain, at 50.0 µM, stronger effect = higher value
Description: Growth inhibition of yeast strains with defined genetic alterations is measured as a screen for potential anti-cancer activity. Selected strains with alterations in DNA damage repair or cell cycle control were exposed to compounds and growth inhibition was measured relative to vehicle treated controls. The strain used in this assay is mec2-1
This is part of a sample that, as a whole, favours compounds with a hit. Of some 79,000 tested, about 15% had one in any assay. Activity calls are given as the source filed them. Cut-off read from the data, not from the text of the source: active = growth inhibition above about 70%; inactive = the rest.

// growth inhibition lookup, key: "Cn1c(=O)c2c(nc([N+](=O)[O-])n2C)n(C)c1=O" 63.8% (inactive)

What value of growth inhibition has been recorded for this entry: "Nc1ccc2c(S(=O)(=O)O)cc(S(=O)(=O)O)cc2c1" -6.25% (inactive)

Please give the measured growth inhibition for this compound: "Clc1nc(Cl)c(Cl)c(-c2ccccc2)n1" 92.7% (active)

Consider the compound COc1cc(NS(=O)(=O)c2ccc(NC(C)c3ccc4cccnc4c3O)cc2)nc(OC)n1 (stereo not drawn) and give its measured growth inhibition. 97.2% (active)

Which growth inhibition reading was recorded for the compound "O=c1[nH]c2c([N+](=O)[O-])cc(Cl)cc2nc1/C=C(\O)c1ccccn1" ? 5.8% (inactive)
